# credit: patent US20160264649A1

- Measured on: HIV-1 Env of isolate MGRM-F1-018 (subtype F) (HIV-1)
- Run description: cell-based or functional assay

| Binder | IC50 (neutralization) |
| --- | --- |
| PGT-125 (antibody, V domains shown) VH: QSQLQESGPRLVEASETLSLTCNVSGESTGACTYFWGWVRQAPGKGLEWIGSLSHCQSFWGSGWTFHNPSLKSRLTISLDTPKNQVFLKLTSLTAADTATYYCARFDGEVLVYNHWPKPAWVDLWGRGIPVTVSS VL: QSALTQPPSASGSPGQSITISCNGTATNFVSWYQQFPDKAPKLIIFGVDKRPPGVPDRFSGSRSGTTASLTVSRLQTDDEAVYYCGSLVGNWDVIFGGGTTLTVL | > 50 µg/mL |
